Cited source for all entries: patent US10570117B2

| compound | melting point |
| --- | --- |
| COc1cc(OCc2ccncc2C(F)(F)F)ccc1-c1cnc(-c2ccc(F)nc2)[nH]1 [Example 136] | 181 to 192 °C |
| COc1cc(OCc2ccc(C(F)(F)F)nc2)ccc1-c1cnc(C2CCC(F)(F)CC2)[nH]1 [Example 17] | 62 to 72 °C |
| COc1cc(OCc2ccc(C(F)(F)F)cn2)ccc1-c1c[nH]c(C2CCC(F)(F)CC2)n1 [Example 61] | 232 to 237 °C |
| COc1cc(OCc2ccc(C(F)(F)F)cn2)ccc1-c1[nH]c(-c2ccc(Cl)nc2)nc1I [Example 208] | 204 to 208 °C (dec.) |

###

procedureText: Solubility in gastric juice or intestinal juice model fluid (precipitation method using DMSO)
Format: physicochemical
settings: pH 6.8, kinetic from dmso stock, 2nd fluid for Disintegration Test of Japanese Pharmacopoeia (pH: 6.8), room temperature, read-out: Solubility (μg/mL) 2nd fluid
Protocol: Solubility in Gastric Juice or Intestinal Juice Model Fluid Measurement was performed by a precipitation method using DMSO. […] Subsequently, insoluble substances in each mixture were removed by filtration, and the UV absorption of each filtrate was measured. […]

| compound | valueRelationSign | solubility at 24 h, µg/mL |
| --- | --- | --- |
| COc1cc(OCc2c(F)cc(C(F)(F)F)c[n+]2[O-])ccc1-c1cnc(-c2ccc(F)nc2)[nH]1 | = | 4.9 |
| COc1cc(-c2[nH]c(C3CCC(F)(F)CC3)nc2Br)ccc1OCc1ccc(C(F)(F)F)cn1 | = | 17.4 |
| COc1cc(OCc2ncccc2C(F)(F)F)ccc1-c1c[nH]c(-c2ccc(Cl)nc2)n1 | = | 3.4 |
| COc1cc(-c2[nH]c(C3CCCC3)nc2Cl)ccc1OCc1ncc(C(F)(F)F)cc1F | = | 0.5 |
| COc1cc(OCc2ccc(C(F)(F)F)cn2)ccc1-c1c(C)nc(-c2ccc(F)nc2)n1C | = | 4 |
| COc1cc(-c2cnc(C3CC(F)(F)C3)[nH]2)ccc1OCc1ccc(C(F)(F)F)nc1 | = | 25.1 |
| COc1cc(-c2[nH]c(-c3ccc(F)nc3)nc2Cl)ccc1OC(C)c1ncc(C(F)(F)F)cc1F (stereo not shown) | < | 0.4 |
| COc1cc(OCc2ncc(C(F)(F)F)cc2F)ccc1-c1cnc(CCC(F)(F)F)[nH]1 | = | 21.6 |
| COc1cc(OCc2ccc(C(F)(F)F)cn2)ccc1-c1c(Cl)nc(-c2ccc(F)nc2)n1CC1CC1 | = | 2.3 |
| COc1cc(OCc2ncccc2C(F)(F)F)ccc1-c1[nH]c(C2CCC(F)(F)CC2)nc1Cl | = | 0.6 |
| Cc1cc(O)ccc1-c1cnc(-c2ccc(F)nc2)[nH]1 | = | 51 |
| COc1cc(OCc2c(F)cc(C(F)(F)F)c[n+]2[O-])ccc1-c1[nH]c(-c2ccc(F)nc2)nc1Br | = | 8.7 |
| COc1cc(OCc2ccc(C(F)(F)F)cn2)ccc1-c1c(C)nc(-c2ccc(Cl)nc2)n1CC1CC1 | = | 1.9 |
| COc1cc(OCc2ncc(C(F)(F)F)cc2F)ccc1-c1cnc(C(C)C)[nH]1 | = | 66.9 |
| COc1cc(OCc2ccc(C(F)(F)F)[n+]([O-])c2)ccc1-c1cnc(-c2ccc(F)nc2)[nH]1 | = | 0.9 |
| COc1cc(OCc2ncc(C(F)(F)F)cc2F)ccc1-c1[nH]c(-c2ccc(F)nc2)nc1Br | < | 0.4 |
| COc1cc(OCc2ncc(C(F)(F)F)cc2F)ccc1-c1[nH]c(C2CCC(F)(F)C2)nc1Cl (stereo not shown) | < | 0.4 |
| COc1cc(OCc2ccc(C(F)(F)F)nc2)c(C)cc1-c1[nH]c(-c2ccc(F)nc2)nc1Cl | < | 1.8 |
| COc1cc(OCc2ccc(C(F)(F)F)cn2)ccc1-c1c[nH]c(C2CCCCC2)n1 | = | 1.3 |
| COc1cc(OCc2ncccc2C(F)(F)F)ccc1-c1nc(-c2ccc(F)nc2)[nH]c1Cl | = | 7.1 |
| COc1cc(OC(C)c2ncc(Br)cc2F)ccc1-c1[nH]c(-c2ccc(F)nc2)nc1Cl (stereo not shown) | = | 5.6 |
| CCOC(C)n1c(-c2ccc(F)nc2)nc(-c2ccc(OCc3ccc(C(F)(F)F)nc3)cc2OC)c1I (stereo not shown) | = | 0.9 |
| COc1cc(OCc2ccc(C(F)(F)F)cn2)ccc1-c1c[nH]c(-c2cccc(N3CCCC3)n2)n1 | = | 2.8 |
| COc1cc(-c2[nH]c(C3CCC(F)(F)CC3)nc2Br)ccc1OCc1ncc(C(F)(F)F)cc1F | = | 0.7 |
| COc1cc(-c2[nH]c(C3C4CC5CC(C4)CC3C5)nc2Cl)ccc1OCc1ccc(C(F)(F)F)cn1 (stereo not shown) | = | 2.6 |
| COc1cc(O)ccc1-c1[nH]c(-c2ccc(F)nc2)nc1Cl | = | 5 |
| COc1cc(-c2cnc(-c3ccc(F)nc3)[nH]2)ccc1OCc1ccc(C(F)(F)F)nc1 | < | 1.6 |
| COc1cc(OCc2cncc(C(F)(F)F)c2)ccc1-c1[nH]c(-c2ccc(F)nc2)nc1Br | < | 0.4 |
| COc1cc(OCc2cncc(C(F)(F)F)c2)ccc1-c1[nH]c(-c2ccc(F)nc2)nc1Cl | = | 0.5 |
| COc1cc(-c2cnc(C3CC(F)(F)C3)[nH]2)ccc1OCc1ncc(C(F)(F)F)cc1F | = | 22.4 |
| COc1cc(OCc2ccc(C(F)(F)F)cn2)ccc1-c1nc(-c2ccc(F)nc2)n(C)c1Cl | < | 0.4 |

###

procedureText: Solubility in gastric juice or intestinal juice model fluid (precipitation method using DMSO)
Format: physicochemical
settings: pH 1.2, simulated gastric fluid, kinetic from dmso stock, 1st fluid for Disintegration Test of Japanese Pharmacopoeia (pH: 1.2), room temperature, read-out: Solubility (μg/mL) 1st fluid
Catalogue of compounds with associated solubility at 24 h
outcomeMeasure: solubility at 24 h (µg/mL)

| compound | outcomeMeasure | valueRelationSign | numericValue |
| --- | --- | --- | --- |
| COc1cc(OCc2ccc(C(F)(F)F)nc2)ccc1-c1cnc(C2CCC(F)(F)CC2)[nH]1 | solubility at 24 h | > | 93 |
| COc1cc(OCc2ncc(F)cc2F)ccc1-c1cnc(-c2ccc(Cl)nc2)[nH]1 | solubility at 24 h | = | 36 |
| COc1cc(OCc2ncccc2C#N)ccc1-c1[nH]c(C2CCC(F)(F)CC2)nc1Cl | solubility at 24 h | = | 87.4 |
| COc1cc(OCc2ccc(C(F)(F)F)nc2)ccc1-c1nc(-c2ccc(F)nc2)n(C)c1C#N | solubility at 24 h | = | 1.1 |
| COc1cc(OCc2ccc(C(F)(F)F)cn2)ccc1-c1nc(-c2ccc(F)nc2)[nH]c1Br | solubility at 24 h | > | 105 |
| COc1cc(OCc2cnccc2C(F)(F)F)ccc1-c1[nH]c(-c2ccc(F)nc2)nc1Br | solubility at 24 h | = | 11.4 |
| Fc1cc(C(F)(F)F)cnc1COc1ccc(-c2[nH]c(C3CC(F)(F)C3)nc2Cl)cc1 | solubility at 24 h | = | 15.9 |
| COc1cc(OCc2ncc(Cl)cc2F)ccc1-c1[nH]c(-c2ccc(F)nc2)nc1Br | solubility at 24 h | = | 17.7 |
| COc1cc(OCc2ccc(C(F)(F)F)nc2)ccc1-c1nc(-c2ccc(Cl)nc2)n(C)c1C | solubility at 24 h | > | 98 |
| COc1cc(OCc2coc(C)n2)ccc1-c1nc(-c2ccc(Cl)nc2)[nH]c1Cl | solubility at 24 h | = | 84.7 |
| COc1cc(OCc2ccc(C(F)(F)F)nc2)ccc1-c1[nH]c(C2CCC(F)(F)C2)nc1Cl (centres unmarked) | solubility at 24 h | = | 89.1 |
| COc1cc(-c2c[nH]c(C3CCC(F)(F)CC3)n2)cc(OC)c1OCc1ccc(C(F)(F)F)cn1 | solubility at 24 h | = | 82.2 |
| COc1cc(O)ccc1-c1[nH]c(-c2ccc(F)nc2)nc1Cl | solubility at 24 h | = | 62.3 |
| COc1cc(OCc2ncccc2C(F)(F)F)ccc1-c1nc(-c2ccc(F)nc2)[nH]c1Cl | solubility at 24 h | > | 96 |
| Cc1cc(O)ccc1-c1cnc(-c2ccc(F)nc2)[nH]1 | solubility at 24 h | = | 53.3 |
| COc1cc(-c2c[nH]c(-c3ccc(C)nc3)n2)ccc1OCc1ccc(C(F)(F)F)cn1 | solubility at 24 h | = | 85.4 |
| COc1cc(OCc2cnc(C)cn2)ccc1-c1nc(-c2ccc(Cl)nc2)[nH]c1Cl | solubility at 24 h | = | 7.5 |
